Target: Human immunodeficiency virus type 1 reverse transcriptase (Human immunodeficiency virus 1, UniProt Q72547, K103N)
Assay: Inhibition of HIV1 reverse transcriptase K103N mutant by RNA-dependent DNA polymerase activity assay
Could you please report measured IC50 for the items listed next?
Enter your answer as a number in µM; do not include the unit.

Ask | Which IC50 reading was recorded for the molecule `Cc1cccc(S(=O)(=O)n2c(=O)[nH]c3ccc(Cl)cc32)c1` ?
Reply | 10

Ask | Which IC50 reading was recorded for the molecule `COc1cccc(S(=O)(=O)n2c(=O)[nH]c3ccc(Cl)cc32)c1` ?
Reply | 10.9

Ask | Which IC50 reading was recorded for the molecule `Cc1cc(C)cc(S(=O)(=O)n2c(=O)[nH]c3ccc(Cl)nc32)c1` ?
Reply | 2.8

Ask | Which IC50 reading was recorded for the molecule `Cc1cc(C)cc(S(=O)(=O)n2c(=O)[nH]c3ccc(Cl)cc32)c1` ?
Reply | 0.4
